log10 of Ki values for the compounds below.
target: CDKs and other kinases (Homo sapiens); construct: other: CDK2A; residual activity (%) at 10 μM CDK2A; compound at 10 μM; experiment: Radiometric kinase assay (Eurofins Pharma Discovery or Reaction Biology Corporation Kinase Profiler); type: biochemical; settings: CDK2A; read-out: CDK inhibition, Ki (μM) CDK2A
// stored as log10 of Ki expressed in µM

Recorded results for 3 compounds are shown here.
>  <Compound>
Cc1cnc(NC2CCC(NCC(F)(F)F)CC2)nc1-c1cnc2ccc(Nc3cncnc3)cn12 (stereo not drawn)

>  <Measure name>
log10 of Ki

>  <Quantitative result>
-0.31

$$$$
>  <Compound>
Fc1cnc(NC2CCNCC2)nc1-c1cnc2ccccn12

>  <Measure name>
log10 of Ki

>  <Quantitative result>
-0.49

$$$$
>  <Compound>
N[C@H]1CC[C@H](Nc2ncc(F)c(-c3cnc4ccc(F)cn34)n2)CC1

>  <Measure name>
log10 of Ki

>  <Quantitative result>
-1.92

$$$$

Please report the recorded log10 of Ki for Cc1ccc(Nc2ccc3ncc(-c4nc(N[C@H]5CC[C@H](N)CC5)ncc4C)n3c2)cn1 .
-0.21

Please report the recorded log10 of Ki for Cc1cnc(N[C@H]2CC[C@H](N3CCC3)CC2)nc1-c1cnc2ccc(Nc3cncnc3)cn12 .
-1.19

Please report the recorded log10 of Ki for N[C@H]1CC[C@H](Nc2ncc(Cl)c(-c3cnc4cc(Nc5cncnc5)ccn34)n2)CC1 .
-1.59

Please report the recorded log10 of Ki for Cc1cnc(N[C@H]2CC[C@H](N)CC2)nc1-c1cnc2ccc(-c3ccncc3)cn12 .
-1.36

Please report the recorded log10 of Ki for Cc1cnc(N[C@H]2CC[C@H](N)CC2)nc1-c1cnc2ccccn12 .
-0.46

Please report the recorded log10 of Ki for N[C@H]1CC[C@H](Nc2ncc(F)c(-c3cnc4ccc(NCc5ccc(F)cc5)cn34)n2)CC1 .
-0.62

Please report the recorded log10 of Ki for N[C@H]1CC[C@H](Nc2ncc(Cl)c(-c3cnc4ccc(Br)cn34)n2)CC1 .
-1.89

Please report the recorded log10 of Ki for Cc1cncc(Nc2ccc3ncc(-c4nc(N[C@H]5CC[C@H](N)CC5)ncc4C)n3c2)c1 .
-0.23

Please report the recorded log10 of Ki for N[C@H]1CC[C@H](Nc2ncc(F)c(-c3cnc4ccccn34)n2)CC1 .
-1.74
